- Test system: U2OS
- PROCEDURE SUMMARY: cell viability relative to DMSO; higher = less toxic
- MEASUREMENT PARAMETERS: 72 h; 1000 nM
PROPERTY MEASURED: cell viability (%)
Hi! Could you send only the number? It should be in %, unit omitted.

Example entries begin here.
> print(dat)
                                   compound  numeric.value
1  COc1ccc2c3c1O[C@H]1C[C@@H](O)C=C[C@@]31CCN(C)C2            104
2  CN(CCOc1ccc(NS(C)(=O)=O)cc1)CCc1ccc(NS(C)(=O)=O)cc1 [dofetilide]           96.6
3  C[N+]1(C)[C@@H]2CC[C@H]1C[C@@H](OC(=O)C(CO)c1ccccc1)C2 (stereo partly drawn) [methylatropine-nitrate]            100

Problem: # cell viability lookup, item CN1[C@@H]2CC[C@H]1C[C@@H](OC(=O)c1cc(Cl)cc(Cl)c1)C2
Solution: 98.7

Problem: Return reported cell viability; argument: O=C(CN1C(=O)C2(CCCC2)NC[C@H]1c1cc(F)cc(F)c1)Nc1ccc2c(c1)C[C@@]1(C2)C(=O)Nc2ncccc21
Solution: 96.8

Problem: Quick check: cell viability of COc1ccc(CC2NCCc3cc(OC)c(OC)cc32)cc1OC (stereo not drawn) [tetrahydropapaverine] ?
Solution: 90.9

Problem: Dear colleague, I am looking for the recorded cell viability of the following compound: O=C1c2ccccc2-c2c(NCCc3ccccc3)c(=O)[nH]c3cccc1c23
Solution: 68.5

Problem: Please report the recorded cell viability for CCn1c(N)c(C(=O)NC)c(=O)c2ccc(C#C[C@@](C)(O)COC)nc21 .
Solution: 97.8

Problem: What value of cell viability has been reported for the following compound? Cn1cc(-c2ccc3nnc(C(F)(F)c4ccc5ncccc5c4)n3n2)cn1
Solution: 95.5

Problem: Entry CCN(CC)CCNc1ccc(CO)c2sc3ccccc3c(=O)c12 : reported cell viability = ?
Solution: 104

Problem: Look at this compound and give its reported cell viability. COc1c(OCCCN2CCOCC2)ccc2c1N=C(NC(=O)c1cnc(N)nc1)N1CCN=C21
Solution: 96.9

Problem: Requested read-out: cell viability. Entry: N[C@@H](Cc1cc(-c2ccc(Cl)cc2Cl)cc(CP(=O)(O)O)c1O)C(=O)O
Solution: 98.2

Problem: What does the record list as cell viability for COCC1(CO)C(=O)C2CCN1CC2 (stereo not drawn) ?
Solution: 96.3

Problem: Item under review: CNCC[C@@H](Oc1ccccc1C)c1ccccc1 . Reported cell viability?
Solution: 94.8

* * *

The following molecules are listed with their measured cell viability values.
- Tested on: Vero E6
- PROCEDURE SUMMARY: cell viability relative to DMSO; higher = less toxic
- MEASUREMENT PARAMETERS: 72 h; 10000 nM
Reply with just the number (in %).

Worked examples, 4 molecules total:
MOLECULE	UNIT OF MEASUREMENT	cell viability
CNC(=O)c1ccccc1Sc1ccc2c(/C=C/c3ccccn3)n[nH]c2c1	%	94.2
O=C1c2cc(Cl)ccc2OC2CCON12 (centres undefined)	%	102
O=c1cc(N2CCN(c3cccc(C(F)(F)F)c3)CC2)[nH]c(=O)n1C1CCCCC1	%	99.7
COC(=O)N[C@H](C(=O)N1CCC[C@H]1C(=O)Nc1ccc([C@@H]2CC[C@@H](c3ccc(NC(=O)[C@@H]4CCCN4C(=O)[C@@H](NC(=O)OC)C(C)C)cc3)N2c2ccc(C(C)(C)C)cc2)cc1)C(C)C	%	102

Problem: # cell viability lookup, item C=C[C@@]1(C)CC(=O)[C@]2(O)[C@@]3(C)[C@@H](O)CCC(C)(C)[C@@H]3[C@H](OC(=O)CCN(C)C)[C@H](OC(C)=O)[C@@]2(C)O1 [colforsin-daproate]
Solution: 77

Problem: Entry CCCCCCc1ccc(O)cc1O.Nc1c2ccccc2nc2ccccc12 has what cell viability?
Solution: 0.3

Problem: Reported cell viability, molecule Cc1csc2c(N[C@@H](C)CN3CCN(S(=O)(=O)c4ccc(Cl)c(Cl)c4)CC3)ncnc12 : ____
Solution: 82.5

Problem: Record request: cell viability value, item O=C(NNc1nc2cc(F)ccc2n2cccc12)c1cnccn1
Solution: 21.9

Problem: Record request: cell viability value, item Cc1cc(O)ccc1Cl
Solution: 99.4

* * *

- Test system: A549-ACE2 infected with SARS-CoV-2
- PROCEDURE SUMMARY: morphology score (similarity to uninfected cells); higher = more like uninfected cells
- MEASUREMENT PARAMETERS: 1 µM; 24 h
PROPERTY MEASURED: morphology score
Output spec: single numeric token, no unit.

> print(dat)
                                   compound  numeric.value
1  CC(C)Oc1ccc(-c2nc(-c3cccc4c3CC[C@@H]4NCCO)no2)cc1C#N           0.33
2  CCN(CC)CCCC(C)Nc1c2ccc(Cl)cc2nc2ccc(OC)cc12 (centres undefined)           0.63
3  C[C@@H](Oc1cc(-n2cnc3ccc(CN4CCN(C)CC4)cc32)sc1C(N)=O)c1ccccc1C(F)(F)F           0.19

Query compound follows.
Problem: Form field: reported morphology score of COc1ccc(NC(=O)c2ccc(-c3ccc(-c4noc(C)n4)cc3C)cc2)cc1N1CCN(C)CC1
Solution: 0.46

* * *

- Test system: A549-ACE2
- PROCEDURE SUMMARY: drug-induced phospholipidosis relative to tamoxifen; higher = more phospholipidosis
- MEASUREMENT PARAMETERS: 10 µM; 24 h
Is drug-induced phospholipidosis at least 10%? Then yes. If not, no.

Would you please look over these solved cases?
> print(dat)
                                   molecule  tested.system  class.assignment
1  COc1c(OCCCN2CCOCC2)ccc2c1N=C(NC(=O)c1cnc(N)nc1)N1CCN=C21      A549-ACE2               yes
2  OC(CCN1CCCCC1)(c1ccccc1)C1CC2C=CC1C2 (stereo unspecified)      A549-ACE2               yes
3  COc1ccc(NC(=O)c2ccc(-c3ccc(-c4noc(C)n4)cc3C)cc2)cc1N1CCN(C)CC1      A549-ACE2               yes
4  CN1CCCCC1Cn1cc(C(=O)c2cc([N+](=O)[O-])ccc2I)c2ccccc21 (stereo unspecified)      A549-ACE2               yes
5  C[C@H]1[C@H](NC(=O)/C(=N\OC(C)(C)C(=O)O)c2csc(N)n2)C(=O)N1S(=O)(=O)O      A549-ACE2                no

# next molecule below
Problem: // inclusive: drug-induced phospholipidosis at least 10%? input: CCC(CC)COC(=O)[C@H](C)N[P@](=O)(OC[C@H]1O[C@@](C#N)(c2ccc3c(N)ncnn23)[C@H](O)[C@@H]1O)Oc1ccccc1
Solution: yes

* * *

Quick list: cell viability per entry.
- System: Vero E6
- PROCEDURE SUMMARY: cell viability relative to DMSO; higher = less toxic
- MEASUREMENT PARAMETERS: 72 h; 10000 nM
Where a name gives a salt, the structure may show the parent alone.
Report the value in % with no unit label.

Worked set:
COMPOUND	PROPERTY MEASURED	NUMERIC VALUE
FC(F)(F)c1ccc(Nc2ncnc3cc(-c4ncccc4C(F)(F)F)ccc23)cc1	cell viability	95.2
Cc1cccc(/C=C/c2ccccc2)n1	cell viability	100
CCCCOc1ccc(C(=O)Nc2ccc(F)cc2F)cc1	cell viability	101
CCC[C@@H]1C[C@@H](C(=O)N[C@@H]([C@H]2O[C@H](SC)[C@H](O)[C@@H](O)[C@H]2O)[C@H](C)Cl)N(C)C1 [CLINDAMYCIN HYDROCHLORIDE]	cell viability	104
O=C1[C@H](Cc2ccc(O)cc2)N2C(=O)CCN(C(=O)NCc3ccccc3)[C@H]2CN1Cc1cccc2ccccc12	cell viability	106

Please examine the following record next.
Problem: Reported cell viability, compound CCOC(=O)CC(=O)N1CCSC1COc1ccccc1OC (centres undefined) : ____
Solution: 105

* * *

Documented cell viability across a set of compounds
- Tested on: Vero E6
- PROCEDURE SUMMARY: cell viability relative to DMSO; higher = less toxic
- MEASUREMENT PARAMETERS: 72 h; 1 nM
Field: numeric (%). Do not append units.

Solved entries:
> print(dat)
                                   compound  numeric.value
1  O=C(O)Cn1c2c(c3cc(F)ccc31)CN(C(=O)c1cccc3ccccc13)CC2 [setipiprant]           94.2
2  CC(=O)c1c(O)cc(C)oc1=O [dehydroacetic-acid]             98
3  CCCCCCc1ccc(O)cc1O.Nc1c2ccccc2nc2ccccc12 [acrisorcin]            105
4  N=C(NCc1ccc(Cl)cc1)SCCCc1c[nH]cn1 [clobenpropit]            101
5   COc1ccc(CNC(=O)c2sc3nc(C)cc(C)c3c2N)cc1           95.8

Problem: // query cell viability value for entry O=C(O)/C=C/c1ccc(-c2ccc(O)c(C34CC5CC(CC(C5)C3)C4)c2)cc1 [adarotene]
Solution: 94

Problem: Consider the compound shown here: CN1CCC(=C2c3ccccc3CCc3sccc32)CC1 [pizotifen] What is its recorded cell viability?
Solution: 98.3

Problem: What value of cell viability has been reported for the following compound? CCCC[C@@]1(C2CCCC2)Cc2cc(OCCCC(=O)O)c(Cl)c(Cl)c2C1=O [DCPIB]
Solution: 109

Problem: If you can, please state the reported cell viability value of C[N+]1(C)[C@@H]2CC[C@H]1C[C@@H](OC(=O)C(CO)c1ccccc1)C2 (some centres undefined) [methylatropine-nitrate] .
Solution: 95.6

Reference for the values: the supplement of paper PMC13380429
